system.tested: Sodium channel protein type 9 subunit alpha (Mus musculus, UniProt Q62205)
Sequence (Q62205 whole entry): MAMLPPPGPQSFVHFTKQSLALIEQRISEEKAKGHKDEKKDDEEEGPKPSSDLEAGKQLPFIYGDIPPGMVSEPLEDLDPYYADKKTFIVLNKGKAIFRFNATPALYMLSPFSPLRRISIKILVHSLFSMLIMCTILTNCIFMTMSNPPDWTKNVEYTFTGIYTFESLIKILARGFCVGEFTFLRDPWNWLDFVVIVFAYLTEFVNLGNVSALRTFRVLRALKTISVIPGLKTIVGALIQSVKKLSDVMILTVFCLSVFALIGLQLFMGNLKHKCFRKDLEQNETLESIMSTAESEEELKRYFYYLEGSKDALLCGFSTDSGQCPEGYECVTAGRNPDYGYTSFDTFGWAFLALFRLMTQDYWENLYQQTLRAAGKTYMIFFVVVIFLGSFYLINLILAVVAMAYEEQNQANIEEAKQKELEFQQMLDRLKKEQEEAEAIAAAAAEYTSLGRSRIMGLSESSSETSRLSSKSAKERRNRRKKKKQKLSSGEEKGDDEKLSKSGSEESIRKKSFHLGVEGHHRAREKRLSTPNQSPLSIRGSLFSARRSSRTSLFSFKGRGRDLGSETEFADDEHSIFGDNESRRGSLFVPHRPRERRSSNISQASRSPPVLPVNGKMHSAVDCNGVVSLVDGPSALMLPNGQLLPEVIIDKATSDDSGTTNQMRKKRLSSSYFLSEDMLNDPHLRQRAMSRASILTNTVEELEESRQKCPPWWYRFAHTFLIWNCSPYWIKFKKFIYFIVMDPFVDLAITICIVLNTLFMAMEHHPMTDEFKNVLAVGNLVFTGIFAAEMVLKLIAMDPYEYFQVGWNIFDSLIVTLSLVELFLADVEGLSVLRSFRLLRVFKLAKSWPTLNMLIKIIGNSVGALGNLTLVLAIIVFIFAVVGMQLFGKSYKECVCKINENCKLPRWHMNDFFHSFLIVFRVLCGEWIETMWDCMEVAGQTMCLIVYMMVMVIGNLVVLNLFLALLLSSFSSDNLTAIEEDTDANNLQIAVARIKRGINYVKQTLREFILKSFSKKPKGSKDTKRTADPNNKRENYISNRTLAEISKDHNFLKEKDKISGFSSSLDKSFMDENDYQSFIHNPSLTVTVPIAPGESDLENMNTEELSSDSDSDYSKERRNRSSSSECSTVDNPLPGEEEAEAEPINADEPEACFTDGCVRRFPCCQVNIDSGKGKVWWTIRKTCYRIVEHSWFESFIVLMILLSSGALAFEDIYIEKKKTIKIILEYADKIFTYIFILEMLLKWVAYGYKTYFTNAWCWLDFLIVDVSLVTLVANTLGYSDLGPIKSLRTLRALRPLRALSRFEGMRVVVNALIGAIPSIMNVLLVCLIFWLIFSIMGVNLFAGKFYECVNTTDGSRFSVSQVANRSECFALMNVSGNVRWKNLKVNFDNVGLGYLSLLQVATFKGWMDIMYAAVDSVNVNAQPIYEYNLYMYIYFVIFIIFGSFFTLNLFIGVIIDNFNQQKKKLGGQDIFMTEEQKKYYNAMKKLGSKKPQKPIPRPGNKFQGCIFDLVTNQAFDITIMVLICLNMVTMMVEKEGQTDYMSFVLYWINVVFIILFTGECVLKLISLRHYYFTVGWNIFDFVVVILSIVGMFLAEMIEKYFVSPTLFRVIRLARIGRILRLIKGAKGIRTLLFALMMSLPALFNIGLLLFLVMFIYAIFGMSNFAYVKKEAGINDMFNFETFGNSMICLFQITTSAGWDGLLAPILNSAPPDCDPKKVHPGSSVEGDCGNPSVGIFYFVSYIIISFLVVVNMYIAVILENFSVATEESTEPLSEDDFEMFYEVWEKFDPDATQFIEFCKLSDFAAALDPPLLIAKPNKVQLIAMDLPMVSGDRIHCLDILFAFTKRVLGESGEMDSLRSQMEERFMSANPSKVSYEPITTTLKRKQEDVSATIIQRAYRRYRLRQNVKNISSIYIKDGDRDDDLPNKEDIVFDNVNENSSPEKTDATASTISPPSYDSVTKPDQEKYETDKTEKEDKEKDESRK
assay.remarks: Inhibition of recombinant mouse Nav1.7 expressed in HEK293 cells at -70 mV holding potential by patch clamp electrophysiology method
Format: cell-based
Listed molecules paired with reported IC50

smiles.data: Cn1cc(-c2ccc(C(F)F)cc2)c2cc(F)c(C(=O)NS(=O)(=O)C3CC3)cc21
system.tested: Sodium channel protein type 9 subunit alpha (Mus musculus, UniProt Q62205)
IC50: 231 nM
//
smiles.data: Cn1cc(-c2ccc(C(F)(F)F)cc2)c2cc(F)c(C(=O)NS(=O)(=O)C3CC3)cc21
system.tested: Sodium channel protein type 9 subunit alpha (Mus musculus, UniProt Q62205)
IC50: 27 nM
//
smiles.data: CC(C)COc1ccc(-c2cn(C)c3cc(C(=O)NS(C)(=O)=O)c(F)cc23)cn1
system.tested: Sodium channel protein type 9 subunit alpha (Mus musculus, UniProt Q62205)
IC50: 115 nM
//
smiles.data: CC(C)COc1ccc(-c2cn(C)c3cc(C(=O)NS(=O)(=O)C4CC4)c(F)cc23)cn1
system.tested: Sodium channel protein type 9 subunit alpha (Mus musculus, UniProt Q62205)
IC50: 37 nM
//
smiles.data: CC(C)COc1ncc(-c2cn(C)c3cc(C(=O)NS(C)(=O)=O)ccc23)cc1Cl
system.tested: Sodium channel protein type 9 subunit alpha (Mus musculus, UniProt Q62205)
IC50: 35 nM
//
smiles.data: CC(C)COc1ncc(-c2cn(C)c3cc(C(=O)NS(=O)(=O)C4CC4)c(F)cc23)cc1Cl
system.tested: Sodium channel protein type 9 subunit alpha (Mus musculus, UniProt Q62205)
IC50: 10 nM

* * *

assay.remarks: Ratio of unbound plasma concentration in CD1 mouse model of CFA-induced thermal hyperalgesia at 3 to 30 mg/kg, ip to IC50 for recombinant mouse Nav1.7 expressed in HEK293 cells at -70 mV holding potential by patch clamp electrophysiology method
Assay type: ADME, organism-based
test.conditions: in vivo

smiles.data: CC(C)COc1ncc(-c2cn(C)c3cc(C(=O)NS(C)(=O)=O)ccc23)cc1Cl
Ratio: 4 to 5
--
smiles.data: CC(C)COc1ccc(-c2cn(C)c3cc(C(=O)NS(C)(=O)=O)c(F)cc23)cn1
Ratio: 4 to 5

* * *

system.tested: Nuclear receptor subfamily 1 group I member 2 (Homo sapiens)
Sequence (O75469 whole entry): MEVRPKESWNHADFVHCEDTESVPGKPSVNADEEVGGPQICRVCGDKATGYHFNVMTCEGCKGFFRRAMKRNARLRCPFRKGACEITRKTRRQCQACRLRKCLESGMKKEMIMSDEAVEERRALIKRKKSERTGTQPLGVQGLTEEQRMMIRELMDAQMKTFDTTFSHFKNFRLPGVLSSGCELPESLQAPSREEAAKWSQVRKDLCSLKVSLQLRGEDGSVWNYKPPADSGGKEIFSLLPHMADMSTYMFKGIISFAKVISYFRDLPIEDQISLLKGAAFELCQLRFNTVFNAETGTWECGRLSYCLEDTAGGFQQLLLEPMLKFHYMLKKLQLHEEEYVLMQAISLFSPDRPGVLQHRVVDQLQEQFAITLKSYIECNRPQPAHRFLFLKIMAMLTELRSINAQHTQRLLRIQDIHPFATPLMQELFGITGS
pIC50: −log10 of the molar value.

smiles.data: CC(C)COc1ncc(-c2cn(C)c3cc(C(=O)NS(C)(=O)=O)ccc23)cc1Cl
pIC50: < 4.30
